Test: DSSTox (CPDBAS) Carcinogenic Potency Database Summary MultiCellCall Results
Settings: animal carcinogenicity bioassays, multi-cell call summary
The source made the active and inactive calls.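 How the source made its calls: active means tumour findings in long-term animal cancer tests in more than one sex, species or organ; inactive means no tumour finding and more than one negative test.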
Please answer using one outcome listed in 1 (active), 0 (inactive)

Check out these entries, answers already filled in.
O=[N+]([O-])c1cc([As](=O)(O)O)ccc1O; 0
Brc1cc(Br)c(-c2c(Br)c(Br)c(Br)c(Br)c2Br)c(Br)c1Br; 1

GET /call?item= CCN(CC)CC#CC(C)(C)OC(=O)C(O)(c1ccccc1)C1CCCCC1 (stereo not drawn) returns the recorded outcome of this test. 0

GET /call?item= "CCCCCCCCCCCC[N+](C)(C)[O-]" returns the recorded outcome of this test. 0

GET /call?item= "CC(=O)N(C(C)=O)c1cccc2c1Cc1ccccc1-2" returns the recorded outcome of this test. 1

GET /call?item= "COC(C)(C)C" returns the recorded outcome of this test. 1

GET /call?item= O=C(c1ccccc1)C(O)c1ccccc1 (stereo not drawn) returns the recorded outcome of this test. 0

GET /call?item= "N=c1ccn2c(n1)O[C@H]1[C@H](O)[C@@H](CO)O[C@H]12" returns the recorded outcome of this test. 0

GET /call?item= "COc1ccc(CN(CCN(C)C)c2ccccn2)cc1" returns the recorded outcome of this test. 1

GET /call?item= "CCCC/C=N/N(C)C=O" returns the recorded outcome of this test. 1

GET /call?item= "C[C@H]1CCCC(=O)CCC/C=C/c2cc(O)cc(O)c2C(=O)O1" returns the recorded outcome of this test. 1

GET /call?item= ClCC1CO1 (stereo not drawn) returns the recorded outcome of this test. 1

GET /call?item= "CCc1nc(N)nc(N)c1-c1ccc(Cl)cc1" returns the recorded outcome of this test. 0

GET /call?item= "Nc1ccc(Cc2ccc(N)cc2)cc1" returns the recorded outcome of this test. 1

GET /call?item= "C[C@@H]1C/C=C/C=C/C=C/C=C/[C@H](O[C@@H]2O[C@H](C)[C@@H](O)[C@H](N)[C@@H]2O)C[C@@H]2O[C@](O)(C[C@@H](O)C[C@H]3O[C@@H]3/C=C/C(=O)O1)C[C@H](O)[C@H]2C(=O)O" returns the recorded outcome of this test. 0

GET /call?item= "O=C(Nc1ccc2c(c1)Cc1ccccc1-2)C(F)(F)F" returns the recorded outcome of this test. 1

GET /call?item= CC(O)CN(C)N=O (stereo not drawn) returns the recorded outcome of this test. 1

GET /call?item= "Cc1cc(=O)n(-c2ccccc2)n1C" returns the recorded outcome of this test. 1

GET /call?item= "C[C@@H]1Cc2c(Cl)cc(C(=O)N[C@@H](Cc3ccccc3)C(=O)O)c(O)c2C(=O)O1" returns the recorded outcome of this test. 1

GET /call?item= "Cc1cc(C)c(N)cc1C" returns the recorded outcome of this test. 1

GET /call?item= "CCN(CC)C(=S)SSC(=S)N(CC)CC" returns the recorded outcome of this test. 0

GET /call?item= "Cc1cnc2ccc3c(nc(N)n3C)c2n1" returns the recorded outcome of this test. 1

GET /call?item= "c1ccncc1" returns the recorded outcome of this test. 1

GET /call?item= "O=NN1CCCN(N=O)CC1" returns the recorded outcome of this test. 1
